# systemName: JAK2 (Homo sapiens, UniProt O60674)
# Construct: made in house; host or cells: SF9 insect cells (baculovirus)
# Sequence (O60674 812-1132): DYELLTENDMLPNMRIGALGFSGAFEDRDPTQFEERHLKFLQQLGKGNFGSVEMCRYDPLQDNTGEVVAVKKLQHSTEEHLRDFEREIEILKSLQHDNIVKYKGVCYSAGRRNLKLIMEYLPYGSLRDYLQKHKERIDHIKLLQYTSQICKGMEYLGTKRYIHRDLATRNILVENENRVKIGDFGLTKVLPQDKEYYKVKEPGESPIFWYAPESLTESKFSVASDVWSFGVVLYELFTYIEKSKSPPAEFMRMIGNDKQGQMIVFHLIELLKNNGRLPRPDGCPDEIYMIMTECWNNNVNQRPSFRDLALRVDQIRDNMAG
# assaySummary: JAK2 inhibition (Table 4)
# Format: biochemical
# particulars: read-out: JAK2 Ki
attributeMeasured: Ki (nM)

Please review the entries below; each comes with its answer.
**Query** Item under review: `N#CCCN[C@H]1CC[C@H](n2cnc3cnc4[nH]ccc4c32)CC1` . Reported Ki?
**Result** 11.5

**Query** Which measured Ki value corresponds to CC(O)CN1CCC(n2c(C(C)O)nc3cnc4[nH]ccc4c32)CC1 (stereo not shown) ?
**Result** 669

**Query** For the compound shown here, `Cc1nc2cnc3[nH]ccc3c2n1C1CC1` , give the reported Ki.
**Result** 97.8

**Query** Look up Ki for this compound: `N#CCCN1CCC(n2c(CC(=O)N3CC(F)(F)C3)nc3cnc4[nH]ccc4c32)CC1`
**Result** 88.8

**Query** GET /values?readout=Ki&item= `N#CCCN1CCC(n2cnc3cnc4[nH]ccc4c32)CC1`
**Result** 1

1 = c1nc2c([nH]1)CCC(n1cnc3cnc4[nH]ccc4c31)C2 (racemic)
2 = O=C1CC2CCC(n3cnc4cnc5[nH]ccc5c43)CC2N1 (racemic)
3 = COC[C@H](C)n1c(C)nc2cnc3[nH]ccc3c21
4 = COCCNc1nc2cnc3[nH]ccc3c2n1C1CCN(CCC#N)CC1
**Query** Please give the order of these compounds when sorted by Ki, largest value leading. Field: ranking. Enter the labels in the order requested.
**Result** 1, 3, 4, 2

* * *

# systemName: JAK3 (Homo sapiens, UniProt P52333)
# Construct: made in house; host or cells: SF9 insect cells (baculovirus)
# Sequence (P52333 783-1124): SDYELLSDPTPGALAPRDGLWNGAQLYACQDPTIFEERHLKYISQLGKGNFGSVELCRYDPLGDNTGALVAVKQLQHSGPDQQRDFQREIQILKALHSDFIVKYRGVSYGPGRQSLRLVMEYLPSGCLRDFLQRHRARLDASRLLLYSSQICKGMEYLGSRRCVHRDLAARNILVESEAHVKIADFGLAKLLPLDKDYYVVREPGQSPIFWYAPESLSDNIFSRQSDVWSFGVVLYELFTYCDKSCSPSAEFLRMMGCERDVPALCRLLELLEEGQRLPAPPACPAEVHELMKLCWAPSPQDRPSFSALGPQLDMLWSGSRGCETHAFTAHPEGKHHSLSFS
# assaySummary: JAK3 inhibition (Table 4)
# Assay type: biochemical
# particulars: read-out: JAK3 Ki
attributeMeasured: Ki (nM)

# example entries with known answers
**Query** What is its Ki for JAK3 (Homo sapiens, UniProt P52333)? Entry: c1ccc(CCN2CCC(n3cnc4cnc5[nH]ccc5c43)CC2)cc1 [Example 80]
**Result** 163

**Query** Field: Ki (JAK3 (Homo sapiens, UniProt P52333)). Entry: CC1(n2cnc3cnc4[nH]ccc4c32)CCN(Cc2cncnc2)CC1 [Example 322]
**Result** 84.8

**Query** Please tell me: Ki of C[C@@H](O)c1nc2cnc3[nH]ccc3c2n1C1CCN(C2(CC#N)COC2)CC1 [Example 861] , system JAK3 (Homo sapiens, UniProt P52333)?
**Result** 1670

**Query** Recall the recorded Ki for CC(C)n1cc(CN2CCC(n3c([C@@H](C)O)nc4cnc5[nH]ccc5c43)CC2)cn1 [Example 824] with JAK3 (Homo sapiens, UniProt P52333) and state it.
**Result** 600

**Query** I'm curious: which Ki was measured for CS(=O)(=O)NCc1nc2cnc3[nH]ccc3c2n1C1CCCC1 [Example 874] tested on JAK3 (Homo sapiens, UniProt P52333)?
**Result** 242

I = FC1CNCCC1n1nnc2cnc3[nH]ccc3c21 (racemic) [Example 525]
II = CCCS(=O)(=O)N1CCC(n2c(Cc3conc3C)nc3cnc4[nH]ccc4c32)CC1 [Example 381]
III = C[C@@H](O)c1nc2cnc3[nH]ccc3c2n1[C@H]1CC[C@@H](N2CCC(F)(F)CC2)CC1 [Example 612]
**Query** Give the ascending ranking of the items by reported Ki. Give me the labels in the order the question wants.
**Result** I, III, II
(I: 87.6 nM, III: 509 nM, II: 1840 nM)

A = O=C(Cc1nc2cnc3[nH]ccc3c2n1C1CCCOC1)NC1CCC(F)(F)CC1 (racemic) [Example 972]
B = CC(CF)N1CCC(n2c([C@@H](C)O)nc3cnc4[nH]ccc4c32)CC1 (some centres unmarked) [Example 691]
C = COCCNC1CCC(n2cnc3cnc4[nH]ccc4c32)C1 (racemic) [Example 726]
D = CC1(n2nnc3cnc4[nH]ccc4c32)CCN(S(=O)(=O)c2cccnc2)CC1 [Example 584]
**Query** Ascending by Ki, please: list the compounds accordingly. Please reply with the labels ordered as requested. Many thanks.
**Result** A, B, C, D
(A: 89.1 nM, B: 206 nM, C: 754 nM, D: 1320 nM)

P = Cc1nc2cnc3[nH]ccc3c2n1[C@@H]1CC[C@@H](NC2COC2)C1 [Example 625]
Q = Cc1nc2cnc3[nH]ccc3c2n1[C@@H]1CCCN(Cc2ccccc2)C1 [Example 238]
R = CCN1CCC(n2c(CCNC(C)=O)nc3cnc4[nH]ccc4c32)C(F)(F)C1 (centres unmarked) [Example 807]
S = CS(=O)(=O)NCc1nc2cnc3[nH]ccc3c2n1C1CC2CCC1O2 (centres unmarked) [Example 925]
T = CC(=O)N[C@H]1CC[C@H](n2cnc3cnc4[nH]ccc4c32)CC1 [Example 106]
**Query** List the 5 entries from lowest Ki to highest Ki value. Returns: the labels listed in the requested order.
**Result** R, T, Q, P, S

a = Cn1ccnc1CN1CCC[C@@H](n2cnc3cnc4[nH]ccc4c32)C1 [Example 44]
b = Cc1nc2cnc3[nH]ccc3c2n1[C@H](C)CO [Example 421]
c = CN(CC(F)(F)F)C(=O)NC1CCC(n2nnc3cnc4[nH]ccc4c32)C1 (racemic) [Example 622]
d = CC(c1ccccc1)N1CCC(n2cnc3cnc4[nH]ccc4c32)CC1 (centres unmarked) [Example 51]
**Query** Order each entry by recorded Ki, climbing from the minimum. Field: ranking. Enter the labels in the order requested.
**Result** c, d, a, b

* * *

# systemName: TYK2 (Homo sapiens)
# Sequence (P29597 873-1187): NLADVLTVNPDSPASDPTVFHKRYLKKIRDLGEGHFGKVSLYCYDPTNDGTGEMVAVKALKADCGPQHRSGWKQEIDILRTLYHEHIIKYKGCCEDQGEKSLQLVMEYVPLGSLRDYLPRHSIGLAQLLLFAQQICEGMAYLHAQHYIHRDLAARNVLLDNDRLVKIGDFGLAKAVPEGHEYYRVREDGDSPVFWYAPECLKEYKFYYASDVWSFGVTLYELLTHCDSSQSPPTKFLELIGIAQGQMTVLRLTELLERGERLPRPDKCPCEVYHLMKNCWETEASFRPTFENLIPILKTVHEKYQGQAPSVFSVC
attributeMeasured: Ki (µM)

I = N#CCCN1CCC(n2c(CNC(=O)c3cccc(F)c3)nc3cnc4[nH]ccc4c32)CC1
II = C[C@@H](O)c1nc2cnc3[nH]ccc3c2n1C1CCC(CS(C)(=O)=O)CC1 (mixture of isomers)
**Query** Please indicate which entry, I or II , has the lower recorded Ki value. Kindly give the label for the entry you pick.
**Result** II
(II: 0.0384 µM, I: 0.0988 µM)

* * *

# systemName: JAK3 (Homo sapiens, UniProt P52333)
# Construct: made in house; host or cells: SF9 insect cells (baculovirus)
# assaySummary: JAK3 inhibition (Table 4)
# Type: biochemical
# particulars: read-out: JAK3 Ki
pKi: −log10 of the molar value.
attributeMeasured: pKi

**Query** Quick check: pKi of `c1cc2c(ncc3ncn([C@@H]4CCCN(C5COC5)C4)c32)[nH]1` ?
**Result** 6.51

**Query** Report pKi for `O=C(Cc1nc2cnc3[nH]ccc3c2n1C1CCN(Cc2ccccc2)CC1)N1CCOCC1` please.
**Result** 8.00

a = COCCNc1nc2cnc3[nH]ccc3c2n1C1CCNCC1
b = N#Cc1ccc(CN2CC[C@@H](n3cnc4cnc5[nH]ccc5c43)C2)cc1
c = C[C@@H](O)c1nc2cnc3[nH]ccc3c2n1C1CCN(CC(=O)N2CCOCC2)CC1
**Query** List these items ordered by pKi, big to small. Give me the labels in the order the question wants.
**Result** b, a, c

P = CC(C)(C)OC(=O)N1CC(n2cnc3cnc4[nH]ccc4c32)C1
Q = CC1CC1COCc1nc2cnc3[nH]ccc3c2n1C1CCN(CCC#N)CC1 (centres unmarked)
**Query** Lab note: record which item had the higher pKi, P or Q . Please reply using the label of the selected record.
**Result** Q
(Q: 6.83, P: 6.04)

A = C[C@@H](O)c1nc2cnc3[nH]ccc3c2n1N1CCOCC1
B = COCCNc1nc2cnc3[nH]ccc3c2n1C1CCN(CCC#N)CC1
**Query** Rank A against B by their pKi values and give the higher one. Please respond with the label that marks your chosen entry.
**Result** B

A = FC(F)(F)CN1CCC(n2cnc3cnc4[nH]ccc4c32)CC1
B = Cn1ccnc1CCc1nc2cnc3[nH]ccc3c2n1C1CCN(CCC#N)CC1
**Query** For the two items A and B , which reports the higher pKi value? Kindly state the label of the option you pick.
**Result** A
(A: 7.42, B: 6.81)

1 = C[C@@H](O)c1nc2cnc3[nH]ccc3c2n1[C@H]1CC[C@H](N2CC[C@@H](C#N)C2)CC1
2 = N#Cc1nc2cnc3[nH]ccc3c2n1C1CCNCC1
**Query** Please compare: 1 and 2 . Report which one has the smaller pKi value. // respond with label for picked entry
**Result** 2

a = O=C(Cc1nc2cnc3[nH]ccc3c2n1C1CCCOC1)N1CCS(=O)(=O)CC1 (racemic)
b = N#CCCN1CCC[C@@H](n2cnc3cnc4[nH]ccc4c32)C1
c = C[C@@H](O)c1nc2cnc3[nH]cc(Br)c3c2n1C1CCC(CC#N)CC1 (some centres unmarked)
d = N#CCCN1CCC(n2c(CNC(=O)C3CC3)nc3cnc4[nH]ccc4c32)CC1
e = c1cc2c(ncc3ncn(C4CCN(Cc5cncs5)CC4)c32)[nH]1
**Query** # desc sort on pKi across 5 compounds // format: requested-order list of labels
**Result** c, e, b, d, a

a = N#CCCn1ncc2c1CC[C@H](n1cnc3cnc4[nH]ccc4c31)C2
b = CCNC(=O)Cc1nc2cnc3[nH]ccc3c2n1C1CCCOC1 (racemic)
c = CCc1nc2cnc3[nH]ccc3c2n1C1CCN(C(C)CC#N)CC1 (centres unmarked)
**Query** Sort entries by pKi from minimum to maximum value. Response format: the labels, sorted as the prompt asks.
**Result** b, a, c

A = CC(=O)NCc1nc2cnc3[nH]ccc3c2n1C1CCN(CCC#N)CC1
B = c1cc2c(ncc3nnn(C4CCCOC4)c32)[nH]1 (single isomer, unassigned) [Example 460]
**Query** Compare pKi: is it lower for A or for B ? To answer, give the label that identifies your chosen option.
**Result** B
(B: 6.50, A: 6.70)
